# FRET LXRβ efficacy per entry
Biological target: LXR β LBD protein (Homo sapiens (Human), UniProt P55055)
Sequence (P55055 222-460): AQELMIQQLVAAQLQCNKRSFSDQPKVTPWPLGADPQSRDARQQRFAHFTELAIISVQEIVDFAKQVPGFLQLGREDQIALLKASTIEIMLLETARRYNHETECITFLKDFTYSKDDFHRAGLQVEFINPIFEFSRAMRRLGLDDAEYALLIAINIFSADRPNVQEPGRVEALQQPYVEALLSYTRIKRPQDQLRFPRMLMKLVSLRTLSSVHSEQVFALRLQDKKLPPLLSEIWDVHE
Test: biochemical
Format: biochemical
Settings: Biological Test Example 3, agonist mode
ENDPOINT LABEL: FRET LXRβ efficacy (%)

molecule="CS(=O)(=O)c1cc(N2CCN(C[C@H]3CC[C@H](C(F)(F)F)CC3)[C@@H](c3ccccc3)C2)ccc1C#N (single isomer, unassigned)" reported_measurement=82
molecule="CS(=O)(=O)c1cc(N2CCN(C[C@H]3CC[C@H](C(F)(F)F)CC3)[C@H](c3ccccc3)C2)ccc1C#N (single isomer, unassigned)" reported_measurement=52

* * *

Molecular target: Gal4 DNA binding domain fused to the LBD of LXRα in HEK293 cells (Homo sapiens (Human), UniProt Q13133)
Sequence (Q13133 209-447): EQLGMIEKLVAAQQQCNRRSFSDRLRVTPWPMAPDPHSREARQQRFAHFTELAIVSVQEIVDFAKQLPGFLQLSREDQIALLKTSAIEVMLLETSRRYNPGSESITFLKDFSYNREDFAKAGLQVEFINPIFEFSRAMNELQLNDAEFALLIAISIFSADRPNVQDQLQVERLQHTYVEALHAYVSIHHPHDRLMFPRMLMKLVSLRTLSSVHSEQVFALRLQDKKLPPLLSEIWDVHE
Experiment: LXR luciferase transcriptional reporter gene assay, agonist mode, LXRα
Type: cell-based
ENDPOINT LABEL: Cell LXRα efficacy

molecule="CS(=O)(=O)c1cc(N2CCN(C[C@H]3CC[C@H](C(F)(F)F)CC3)[C@@H](c3ccccc3)C2)ccc1CO (single isomer, unassigned)" endpoint_label="Cell LXRα efficacy" reported_measurement="431 (65) %"
molecule=CC(C)[C@@H]1CN(c2ccc(F)c(S(N)(=O)=O)c2)CCN1c1ncc(C(C)(C)O)c(C(F)(F)F)n1 endpoint_label="Cell LXRα efficacy" reported_measurement="2692 (45) %"
molecule=CNS(=O)(=O)c1cc(N2CCN(c3ncc(C(C)=O)c(C(F)(F)F)n3)[C@H](C(C)C)C2)ccc1F endpoint_label="Cell LXRα efficacy" reported_measurement="290 (73) %"
molecule=CS(=O)(=O)c1cccc(N2CCN(C[C@@H]3C[C@H]4CC[C@@H](C3)N4CC(F)(F)F)[C@@H](c3ccccc3)C2)c1 endpoint_label="Cell LXRα efficacy" reported_measurement="1394 (54) %"
molecule=CC(C)[C@@H]1CN(c2ccc(F)c(S(C)(=O)=O)c2)CCN1C(=O)OC(C)(C)C endpoint_label="Cell LXRα efficacy" reported_measurement="5252 (61) %"
molecule=CC(C)[C@@H]1CN(c2ccc(F)c(S(C)(=O)=O)c2)CCN1c1ncc(C(F)(F)F)cc1Cl endpoint_label="Cell LXRα efficacy" reported_measurement="949 (84) %"
molecule=Cc1ccc(N2CCN(c3cccc(S(C)(=O)=O)c3)C[C@H]2C(C)C)nn1 endpoint_label="Cell LXRα efficacy" reported_measurement="14681 (71) %"
